Values were extracted from ChEMBL document CHEMBL1201862.

// each record: one item and its GI50 for HCT-15

| compound | qualifier.symbol | GI50, µM |
| --- | --- | --- |
| C=CCOC(=O)/C(=C\c1ccc(OC)c(OC)c1)c1ccc(OC)c(OC)c1 | > | 100 |
| COc1cccc(C2c3cc4c(cc3OC(N3CCOCC3)C2C)OCO4)c1OC (centres undefined) | = | 4.36 |
| CO[C@]12CC(=O)C3(C(C[C@H]4CC5CCC6=CC(=O)CC[C@]6(OC(C)=O)C5C[C@@]43C)C1)C1C[C@H]3[C@@H]4CCC5=CC(=O)CC[C@]5(OC(C)=O)[C@H]4CC[C@]3(C)C12 (some centres undefined) | > | 100 |
| CN(C)CCC1(C2=CCCC2)CC/C(=C\c2ccc3c(c2)OCO3)C1=O (centres undefined) | = | 13.9 |

* * *

- Test system: OVCAR-5
- protocol.text: NCI tumour cell line growth inhibition, 48 h
Active and inactive are the calls of the source. Rule as the data show it: active = GI50 up to about 1.1 µM and inactive = higher.
Outcomes: Y = active, N = inactive

| compound | class.assignment |
| --- | --- |
| [N-]=[N+]=NC1=C(c2ccccc2)C(=O)c2cccc3cccc1c23 | N |
| COc1ccc2nc3cccc([N+](=O)[O-])c3c(NCCN(C)C)c2c1 | Y |
| COc1nc(N)c(C(=O)CCl)c(=O)n1C | N |
| CNS(=O)(=O)NNS(=O)(=O)c1ccc(C)cc1 | N |
| NC(=O)C[C@H](NC(=O)C1(NC(=O)[C@H](Cc2ccc(CP(=O)(O)O)cc2)NC(=O)C(=O)O)CCCCC1)C(=O)NCCCc1cccc2ccccc12 | N |
| OCN(CO)c1ccc2c(c1)Cc1cc(F)ccc1-2 | N |
| O=[N+]([O-])c1ccc2nc3ccscc-3c2c1 | N |
| COc1cc(-c2ccc(/N=N/c3ccc4c(S(=O)(=O)O)cc(S(=O)(=O)O)c(N)c4c3O)c(OC)c2)ccc1/N=N/c1ccc2c(S(=O)(=O)O)cc(S(=O)(=O)O)c(N)c2c1O | N |
| O=C1N2Cc3c4ccc5c3CN3C(=O)N6Cc7c(ccc(c7CN1C6(c1ccccc1)C23c1ccccc1)OCCOCCNCCOCCO4)OCCOCCNCCOCCO5 (centres undefined) | N |

* * *

The following compounds are listed with their measured GI50 values.
- Test system: KM12
- protocol.text: NCI tumour cell line growth inhibition, 48 h
Calls of active or inactive are those of the source. Rule as the data show it: active = GI50 up to about 1.1 µM and inactive = higher.

| compound | GI50 |
| --- | --- |
| COC(=O)CCC(NC(=O)C(C)NC(=O)COC1C(O)C(OC(=O)CCNc2c3ccccc3nc3cccc([N+](=O)[O-])c23)OC(OCc2ccccc2)C1NC(C)=O)C(N)=O (stereo unspecified) | 5.71 µM (inactive) |
| CCCc1nc(NC#N)nc(C(=O)NC23CC4CC(CC(C4)C2)C3)c1C | > 100 µM (inactive) |
| O=[N+]([O-])c1ccc2c(Nc3ccccc3-c3ccccc3Nc3c4ccccc4nc4cc([N+](=O)[O-])ccc34)c3ccccc3nc2c1 | 2.86 µM (inactive) |
| COc1cccc(NC(=O)CC(=O)N2N=C(C)C(/N=N/c3ccc(S(=O)(=O)CCOS(=O)(=O)O)cc3)C2=O)c1 (stereo unspecified) | 11.6 µM (inactive) |
| O=[N+]([O-])/C=C/c1cc2ccccc2[nH]1 | 12.2 µM (inactive) |
| CC1=C2C(O)C(C(C)C(=O)NCC(C)C)CCC2(C)C=CC1=O (stereo unspecified) | > 100 µM (inactive) |
| CC(C)(C)OC(=O)N[C@@H](Cc1ccccc1)C(=O)N1CC[C@@H](C(=O)N2[C@H]3CC4CC[C@@]3(CS2(=O)=O)C4(C)C)N1 | 79.1 µM (inactive) |
| O=C(Cc1ccc(Cl)cc1)Nc1ccc2oc(-c3ccccc3)nc2c1 | > 100 µM (inactive) |
| Cc1ccc2c(c1)NC(c1ccc(C(=O)O)cc1)c1cccn1-2 (stereo unspecified) | 30.7 µM (inactive) |
| CN(C)CC(C)(C)C(=O)/C=C/c1ccccc1 | 14.1 µM (inactive) |
| O=c1cccccc1NCCOCCNc1cccccc1=O | > 100 µM (inactive) |
| COc1ccc2nccc(SCC(=O)O)c2c1 | > 100 µM (inactive) |
| OCN(CO)c1ccc2c(c1)Cc1cc(F)ccc1-2 | 17.8 µM (inactive) |
| COc1cc(/C=C/c2ccnc3ccccc23)cc(OC)c1OC | 3.23 µM (inactive) |
| c1ccc(CN(Cc2ccccn2)Cn2cccn2)nc1 | 63.8 µM (inactive) |
| COC(=O)NC(=O)NC(Cc1ccccc1)NC(=O)OCc1ccccc1 (stereo unspecified) | > 100 µM (inactive) |
| NC(=S)NN=C1Cc2ccccc2C1 | > 100 µM (inactive) |
| CC1C2=C(O)CC(C)(C)CC2=NC2=C1C(=O)CC(C)(C)C2 (stereo unspecified) | > 100 µM (inactive) |
| CC[N+]1(C)CCC(O)(/C=C/c2ccc(Cl)cc2)C(C(=O)/C=C/c2ccc(Cl)cc2)C1 (stereo unspecified) | 2.9 µM (inactive) |
| CSc1nc(-c2ccccc2)[nH]c(=O)n1 | > 100 µM (inactive) |
| N/C(=N\O)N/N=C\c1c(O)cc(O)cc1O | 36.4 µM (inactive) |

* * *

- Tested on: SNB-75
- protocol.text: NCI tumour cell line growth inhibition, 48 h
Activity calls are given as the source filed them. Rule as the data show it: active = GI50 up to about 1.1 µM and inactive = higher.
The following molecules are listed with their measured GI50 values.
recorded.metric: GI50

| molecule | assay.result |
| --- | --- |
| COc1ccc(/C=N/n2c(Cc3ccccc3)n[nH]c2=O)c(OC)c1 | 9.71 µM (inactive) |
| COc1ccc(C(=O)N2CCN(c3ccc4c(c3)OCC(=O)N4)CC2)cc1 | > 100 µM (inactive) |
| O=C(/C=C/c1ccccc1Cl)NC1C=Nc2ccc([N+](=O)[O-])cc2NC1 (stereo not drawn) | 90.8 µM (inactive) |
| CC(C)(C)OC(=O)CN1CCNCCN(CC(=O)OC(C)(C)C)CC1 | 12.8 µM (inactive) |
| COc1ccc(NC(=O)C(C)Oc2ccc(OCC3CCCCC3)cc2)cc1 (stereo not drawn) | 54 µM (inactive) |
| NNC(=O)N/N=C1/C(=O)N(c2ccc(Cl)c(Cl)c2)C(=O)C(=O)C1c1nc2ccccc2o1 (stereo not drawn) | > 100 µM (inactive) |
| Oc1ccccc1CNCc1nc2ccccc2[nH]1 | 57.4 µM (inactive) |
| CCn1c(-c2ccc(/N=N/Nc3ccc(-c4n[nH]c(=S)n4CC)cc3)cc2)n[nH]c1=S | 2.79 µM (inactive) |
| CCCC(=O)[O-].[Na+] [SODIUM BUTYRATE] | 9680 µM (inactive) |
| COc1cc(/C=C2/C(=O)N(C(=O)c3ccccc3O)N=C2C)cc(OC)c1OC | 1.84 µM (inactive) |
| CC(C)(C)c1cc(C2=NN(c3ccccc3)C(c3ccccc3)C2)cc(C(C)(C)C)c1O (stereo not drawn) | > 100 µM (inactive) |
| NC(=S)N/N=C(/CC(=O)c1ccccc1)C(=O)Nc1ccc(Cl)c(Cl)c1 | > 100 µM (inactive) |
| CC(=O)CCn1c(=S)sc2ccccc21 | > 100 µM (inactive) |
| Cc1cn(C2CC(n3cc(Cn4cc(Br)c(=O)[nH]c4=O)nn3)C(CO)O2)c(=O)[nH]c1=O (stereo not drawn) | 60.5 µM (inactive) |
| O=C(O)c1c(O)c2cc(Br)ccc2oc1=O | > 100 µM (inactive) |
| CC(=O)NC(CCCN(Cc1ccccc1)C(=O)N(CCCl)N=O)C(=O)NCc1ccccc1 (stereo not drawn) | 9.02 µM (inactive) |
| CC(C)CC(N)C(=O)Nc1ccc2ccccc2c1 (stereo not drawn) | > 100 µM (inactive) |
| O=C1CCC[C@H]2O[C@@H](COCc3ccccc3)C[C@@H]12 | > 100 µM (inactive) |
| COc1cc2c(cc1OC)C1Cc3sccc3CN1CC2 (stereo not drawn) | > 100 µM (inactive) |
| O=S(=O)(c1ccccc1)C(CN1CCCCC1)S(=O)(=O)c1ccccc1 | > 100 µM (inactive) |
| O=C(O)[C@@H]1CCCC[C@@H]1C(=O)N(C1CCCCC1)C1CCCCC1 | > 100 µM (inactive) |
| NC1(C(=O)O)CCC(C(=O)O)CC1 (stereo not drawn) | > 100 µM (inactive) |
| CCOC(=O)/C(=N/Nc1ccc(C)cc1)N1C(=S)N(C)N=C(C)C=C1S | 29.3 µM (inactive) |

* * *

The following compounds are listed with their measured GI50 values.
- Test system: SF-268
- protocol.text: NCI tumour cell line growth inhibition, 48 h
The source made the active and inactive calls. No stated cut-off is given here; in the data, active = GI50 up to about 1.1 µM and inactive = higher.

| compound | GI50 |
| --- | --- |
| NC(=S)N/N=C(\CC1OC(=O)c2ccccc21)c1ccc(Cl)cc1 (stereo unspecified) | 36.8 µM (inactive) |
| COc1ccccc1NC(=O)C(CC(C(=O)Nc1ccccc1OC)/C(C)=N/Nc1ccc([N+](=O)[O-])cc1[N+](=O)[O-])/C(C)=N/Nc1ccc([N+](=O)[O-])cc1[N+](=O)[O-] (stereo unspecified) | > 84.9 µM (inactive) |
| CCc1n[nH]c(=O)n1NC(=O)CCCC(=O)O | > 100 µM (inactive) |
| Cc1cccc2c(N)c3cccc(C(=O)NCC[N+](C)(C)Cc4ccc([N+](=O)[O-])s4)c3nc12 | 4.78 µM (inactive) |
| Cc1cccc(Cl)c1NC(N)=S | 51.3 µM (inactive) |
| Cc1cccc2c1C/C(=C1\CCc3c(C)cccc31)C2=O | > 100 µM (inactive) |
| N#CC(C(=O)c1ccccc1F)c1nc2cc(C(F)(F)F)ccc2s1 (stereo unspecified) | 30.3 µM (inactive) |
| N=C(NCc1ccccc1)N/N=C\c1ccnc2ccccc12 | 12.3 µM (inactive) |
| CC1(C)CC(=O)C(=CNC(N)=S)C(=O)C1 | > 100 µM (inactive) |
| C#CCC[C@@H]1O[C@@]1(C)CC/C=C(\C)CC/C=C/C=O | 22.2 µM (inactive) |
| Clc1ccccc1/C=C\C1(c2ccccc2)OCCO1 | 13.1 µM (inactive) |
| C=C1CC=CC(C)(C)C1C/C=C(\C)C(O)CBr (stereo unspecified) | > 100 µM (inactive) |
| Cn1ccnc1Sc1ccc(/C=N/NC(=O)c2ccccc2O)cc1[N+](=O)[O-] | 48.8 µM (inactive) |
| COC1(CC[C@@H](C)COC2OC(CO)C(O)C(O)C2O)OC2C[C@H]3[C@@H]4CC[C@H]5C[C@@H](OC6OC(CO)C(OC7OC(CO)C(O)C(O)C7O)C(O)C6OC6OC(C)C(O)C(O)C6O)[C@H](O)C[C@]5(C)[C@H]4CC[C@]3(C)C2[C@@H]1C (stereo partly specified) | 2.07 µM (inactive) |
| COc1cc(C(=O)CC2(O)C(=O)Nc3c(Cl)cc(Cl)cc32)ccc1O (stereo unspecified) | 43.8 µM (inactive) |
| CCOC(=O)C1C(NC(N)=O)N(Cc2ccccc2)C(=O)N1Cc1ccccc1 (stereo unspecified) | > 100 µM (inactive) |
| C/C(=C1/N=C(c2ccccc2)OC1=O)c1ccc(C)cc1 | > 100 µM (inactive) |
| O=C1N[C@@H]2CCCC[C@@H]2C12CCCCC2 | > 100 µM (inactive) |
| CC(C)(C)C1(c2ccc(C3(c4ccccc4)Oc4ccccc4S3)[nH]2)Oc2ccccc2S1 (stereo unspecified) | > 100 µM (inactive) |
| Cc1cccc2c1C(=O)C1(Cc3ccccc3C1=O)C2 (stereo unspecified) | > 100 µM (inactive) |
| CC/C(C)=C1\OC(=O)C(C)C(O)C(Cc2cccnc2)NC(=O)C(NC(=O)c2ncccc2O)C(C)OC1=O (stereo unspecified) | 58.3 µM (inactive) |
| Nc1nc(N)c2ncn(CCOC(c3ccccc3)P(=O)(O)O)c2n1 (stereo unspecified) | > 100 µM (inactive) |
| CCOC(=O)C(=O)Nc1c(C)cccc1CC | > 100 µM (inactive) |
| COc1ccc(OC(C(=O)O)c2ccccc2)c2c1CCCC2=O (stereo unspecified) | > 100 µM (inactive) |
| COCCOCCOCCC(=O)NC1CC2CCC1(C)C2(C)C (stereo unspecified) | > 100 µM (inactive) |
| Cn1/c(=N\S(=O)(=O)c2ccccc2)n(S(=O)(=O)c2ccccc2)c2ccccc21 | 54.1 µM (inactive) |
| O=Cc1ccc2c(c1)CC1(C2)Cc2ccc(C=O)cc2C1 | 13.4 µM (inactive) |
| C=C(C)C(=O)OC1C/C(CO)=C\C(O)C/C(C)=C/C2OC(=O)C(=C)C21 (stereo unspecified) | 22.2 µM (inactive) |
| CN1C(=O)C(O)CC1c1ccc(C(F)(F)F)cc1 (stereo unspecified) | > 100 µM (inactive) |
| CC1=C(c2cc(C(=O)Nc3cccc(C(F)(F)F)c3)ncn2)Sc2ccccc2N1 | > 100 µM (inactive) |
| C=CC1(C)/C(=N\O)C(C)(CC)C(=O)N1O (stereo unspecified) | > 100 µM (inactive) |
| CSc1ccc(C2C(Cl)C(=O)N2NC(=O)c2c(Cl)c(Cl)c(Cl)c(Cl)c2-c2nc3ccccc3[nH]2)cc1 (stereo unspecified) | 19.1 µM (inactive) |
| O=C1C(Cl)N(c2ccc(Cl)cc2Cl)C1c1c[nH]c2ccccc12 (stereo unspecified) | > 100 µM (inactive) |
| CC(=O)NC(CCCN(Cc1ccccc1)C(=O)N(CCCl)N=O)C(=O)NCc1ccccc1 (stereo unspecified) | 3.89 µM (inactive) |
| CCCc1nc(NC#N)nc(C(=O)NC23CC4CC(CC(C4)C2)C3)c1C | > 100 µM (inactive) |
| COc1cc(C)c2c(c1C)OC(=O)c1c(C)c(Cl)c(O)c(C=O)c1O2 | 9.66 µM (inactive) |
| N#C[BH2-][n+]1ccc(C(=O)NNC(c2ccccc2)C(F)(F)F)cc1 (stereo unspecified) | > 100 µM (inactive) |
| O=C(Cc1ccc(Cl)cc1)Nc1ccc2oc(-c3ccccc3)nc2c1 | 74 µM (inactive) |
| COc1cc(Br)cc2c1O[C@H]1C(=O)CC3CC21CCN3C (stereo partly specified) | 80 µM (inactive) |
| NC(=O)CCC(N=C(N)c1csc(C2OC(CO)C(O)C2O)n1)C(=O)O (stereo unspecified) | > 100 µM (inactive) |
| O=C(C[C@@H]1CCCN2CCCC[C@H]12)N1c2ccccc2Sc2ccc(Cl)cc21 | 19.2 µM (inactive) |
